Measured log10(AUC(0-t) at 6 h) values are reported for all entries that follow.
Experiment: in vivo
Conditions: Sprague-Dawley, rat, po, 5 mg/kg
Base-10 log of AUC(0-t) at 6 h, unit µM·h.

// below: answered compounds
record_smiles=C=C(C)[C@@H]1CC[C@]2(CNCCCN(C)c3ccccc3)CC[C@]3(C)[C@H](CC[C@@H]4[C@@]5(C)CC=C(c6ccc(C(=O)O)cc6)C(C)(C)[C@@H]5CC[C@]43C)[C@@H]12 observation_type="log10(AUC(0-t) at 6 h)" reported_measurement=-0.02
record_smiles=C=C(C)[C@@H]1CC[C@]2(CNCCCN3CCS(=O)(=O)CC3)CC[C@]3(C)[C@H](CC[C@@H]4[C@@]5(C)CC=C(c6ccc(C(=O)O)cc6)C(C)(C)[C@@H]5CC[C@]43C)[C@@H]12 observation_type="log10(AUC(0-t) at 6 h)" reported_measurement=0.23
record_smiles=C=C(C)[C@@H]1CC[C@]2(CNC(=O)CNC)CC[C@]3(C)[C@H](CC[C@@H]4[C@@]5(C)CC=C(c6ccc(C(=O)O)cc6)C(C)(C)[C@@H]5CC[C@]43C)[C@@H]12 observation_type="log10(AUC(0-t) at 6 h)" reported_measurement=-0.27
record_smiles=C=C(C)[C@@H]1CC[C@]2(CN(C)CCCN3CCS(=O)(=O)CC3)CC[C@]3(C)[C@H](CC[C@@H]4[C@@]5(C)CC=C(c6ccc(C(=O)O)cc6)C(C)(C)[C@@H]5CC[C@]43C)[C@@H]12 observation_type="log10(AUC(0-t) at 6 h)" reported_measurement=0.68
record_smiles=C=C(C)[C@@H]1CC[C@]2(CN(CCN(C)C)C(=O)CCC(=O)O)CC[C@]3(C)[C@H](CC[C@@H]4[C@@]5(C)CC=C(c6ccc(C(=O)O)cc6)C(C)(C)[C@@H]5CC[C@]43C)[C@@H]12 observation_type="log10(AUC(0-t) at 6 h)" reported_measurement=0.64

Input "C=C(C)[C@@H]1CC[C@]2(CNCCCN3CCOCC3)CC[C@]3(C)[C@H](CC[C@@H]4[C@@]5(C)CC=C(c6ccc(C(=O)O)cc6)C(C)(C)[C@@H]5CC[C@]43C)[C@@H]12" . Output log10(AUC(0-t) at 6 h): -1.35

* * *

Assay: AUClast in Sprague-Dawley rat at 35 mg/kg, po via gavage up to 24 hrs by LC-MS/MS analysis
Assay type: ADME, organism-based
Parameters: time < 24 hr, dose 35 mg/kg, route oral
Settings: in vivo
observation-type: AUC(0-t) at 24 h (µM·h)
Write the answer as a number in µM·h, unit excluded.

"C=C(C)[C@@H]1CC[C@]2(CNCCCN3CCS(=O)(=O)CC3)CC[C@]3(C)[C@H](CC[C@@H]4[C@@]5(C)CC=C(c6ccc(C(=O)O)cc6)C(C)(C)[C@@H]5CC[C@]43C)[C@@H]12.Cl" yielded AUC(0-t) at 24 h of 11.4

* * *

Test: Cmax in Sprague-Dawley rat at 35 mg/kg, po via gavage by LC-MS/MS analysis
Assay type: ADME, organism-based
Set-up: dose 35 mg/kg, route oral
Conditions: in vivo
observation-type: Cmax (nM)
Value expressed in nM; do not type the unit.

Noted for "C=C(C)[C@@H]1CC[C@]2(CNCCCN3CCS(=O)(=O)CC3)CC[C@]3(C)[C@H](CC[C@@H]4[C@@]5(C)CC=C(c6ccc(C(=O)O)cc6)C(C)(C)[C@@H]5CC[C@]43C)[C@@H]12.Cl" : its Cmax reads 451

* * *

Experiment: cells
Conditions: Human immunodeficiency virus 1, subtype B NL4-3, MT2
// map IC50 to label using band 1 = under 20 nM, band 2 = from 20 nM up to 40 nM, band 3 = 40 nM and over

Some entries whose results are on file:
record_smiles=C=C(C)[C@@H]1CC[C@]2(CNCCCN3CCOCC3)CC[C@]3(C)[C@H](CC[C@@H]4[C@@]5(C)CC=C(c6ccc(C(=O)O)cc6)C(C)(C)[C@@H]5CC[C@]43C)[C@@H]12 class_assignment="band 2"
record_smiles=C=C(C)[C@@H]1CC[C@]2(CNCCN(CC)CC)CC[C@]3(C)[C@H](CC[C@@H]4[C@@]5(C)CC=C(c6ccc(C(=O)O)cc6)C(C)(C)[C@@H]5CC[C@]43C)[C@@H]12 class_assignment="band 2"
record_smiles=C=C(C)[C@@H]1CC[C@]2(CNCCCN(C)c3ccccc3)CC[C@]3(C)[C@H](CC[C@@H]4[C@@]5(C)CC=C(c6ccc(C(=O)O)cc6)C(C)(C)[C@@H]5CC[C@]43C)[C@@H]12 class_assignment="band 3"
record_smiles=C=C(C)[C@@H]1CC[C@]2(CNCCN(CCO)CCO)CC[C@]3(C)[C@H](CC[C@@H]4[C@@]5(C)CC=C(c6ccc(C(=O)O)cc6)C(C)(C)[C@@H]5CC[C@]43C)[C@@H]12 class_assignment="band 1"
record_smiles=C=C(C)[C@@H]1CC[C@]2(CNCCN3CCOCC3)CC[C@]3(C)[C@H](CC[C@@H]4[C@@]5(C)CC=C(c6ccc(C(=O)O)cc6)C(C)(C)[C@@H]5CC[C@]43C)[C@@H]12 class_assignment="band 1"

As a next step, examine the compound that follows.
// bin(item) where item = "C=C(C)[C@@H]1CC[C@]2(CNCCCN3CCCCC3)CC[C@]3(C)[C@H](CC[C@@H]4[C@@]5(C)CC=C(c6ccc(C(=O)O)cc6)C(C)(C)[C@@H]5CC[C@]43C)[C@@H]12"
band 1

* * *

Assay: Oral bioavailability in Sprague-Dawley rat at 5 mg/kg via gavage up to 24 hrs by LC-MS/MS analysis
Type: ADME, organism-based
Conditions: in vivo
observation-type: bioavailability (%)
Return type: number; implicit unit %.

Per the record, "C=C(C)[C@@H]1CC[C@]2(CNCCCN3CCS(=O)(=O)CC3)CC[C@]3(C)[C@H](CC[C@@H]4[C@@]5(C)CC=C(c6ccc(C(=O)O)cc6)C(C)(C)[C@@H]5CC[C@]43C)[C@@H]12.Cl" has bioavailability of 12

* * *

Test: in vivo
Settings: Sprague-Dawley, rat, plasma, po, 5 mg/kg
Description: Plasma concentration in Sprague-Dawley rat at 5 mg/kg, po via gavage after 24 hrs by LC-MS/MS analysis
Below: a set of entries, each annotated with reported concentration at 24 h.
Dear colleague, please return just the value in nM, with no unit written.

record_smiles=C=C(C)[C@@H]1CC[C@]2(CNCCCN3CCS(=O)(=O)CC3)CC[C@]3(C)[C@H](CC[C@@H]4[C@@]5(C)CC=C(c6ccc(C(=O)O)cc6)C(C)(C)[C@@H]5CC[C@]43C)[C@@H]12.Cl output_unit=nM reported_measurement=34

Now examine the next entry.
The molecule listed as "C=C(C)[C@@H]1CC[C@]2(C(=O)NCCN(C)C)CC[C@]3(C)[C@H](CC[C@@H]4[C@@]5(C)CC=C(c6ccc(C(=O)O)cc6)C(C)(C)[C@@H]5CC[C@]43C)[C@@H]12" shows concentration at 24 h equal to 27

* * *

Experiment: Cmax in Sprague-Dawley rat at 5 mg/kg, po via gavage by LC-MS/MS analysis
Type: ADME, organism-based
Parameters: dose 5 mg/kg, route oral
Conditions: in vivo
observation-type: Cmax (nM)
Give the value, in units of nM, as a plain number.

Cmax measured on "C=C(C)[C@@H]1CC[C@]2(CNCCCN3CCS(=O)(=O)CC3)CC[C@]3(C)[C@H](CC[C@@H]4[C@@]5(C)CC=C(c6ccc(C(=O)O)cc6)C(C)(C)[C@@H]5CC[C@]43C)[C@@H]12.Cl" = 232

* * *

Assay: Tmax in Sprague-Dawley rat at 35 mg/kg, po via gavage by LC-MS/MS analysis
Type: ADME, organism-based
Conditions: in vivo
observation-type: Tmax (h)
Record the value in h, omitting the unit from your answer.

Tmax measured on "C=C(C)[C@@H]1CC[C@]2(CNCCCN3CCS(=O)(=O)CC3)CC[C@]3(C)[C@H](CC[C@@H]4[C@@]5(C)CC=C(c6ccc(C(=O)O)cc6)C(C)(C)[C@@H]5CC[C@]43C)[C@@H]12.Cl" = 5.3

* * *

Assay: in vivo
Settings: Sprague-Dawley, rat, po, 5 mg/kg
observation-type: AUC(0-t) at 6 h

// worked examples, AUC(0-t) at 6 h included
record_smiles=C=C(C)[C@@H]1CC[C@]2(CNCCN3CCS(=O)(=O)CC3)CC[C@]3(C)[C@H](CC[C@@H]4[C@@]5(C)CC=C(c6ccc(C(=O)O)cc6)C(C)(C)[C@@H]5CC[C@]43C)[C@@H]12 observation_type="AUC(0-t) at 6 h" reported_measurement="2.05 µM·h"
record_smiles=C=C(C)[C@@H]1CC[C@]2(CNCCCN3CCCC3=O)CC[C@]3(C)[C@H](CC[C@@H]4[C@@]5(C)CC=C(c6ccc(C(=O)O)cc6)C(C)(C)[C@@H]5CC[C@]43C)[C@@H]12 observation_type="AUC(0-t) at 6 h" reported_measurement="1.04 µM·h"
record_smiles=C=C(C)[C@@H]1CC[C@]2(CNCCCN(C)C)CC[C@]3(C)[C@H](CC[C@@H]4[C@@]5(C)CC=C(c6ccc(C(=O)O)cc6)C(C)(C)[C@@H]5CC[C@]43C)[C@@H]12 observation_type="AUC(0-t) at 6 h" reported_measurement="0.01 µM·h"
record_smiles=C=C(C)[C@@H]1CC[C@]2(CNCCn3ccnc3)CC[C@]3(C)[C@H](CC[C@@H]4[C@@]5(C)CC=C(c6ccc(C(=O)O)cc6)C(C)(C)[C@@H]5CC[C@]43C)[C@@H]12 observation_type="AUC(0-t) at 6 h" reported_measurement="0.223 µM·h"

Turning now to a further compound:
Looking up "C=C(C)[C@@H]1CC[C@]2(CNCCc3ccc(S(N)(=O)=O)cc3)CC[C@]3(C)[C@H](CC[C@@H]4[C@@]5(C)CC=C(c6ccc(C(=O)O)cc6)C(C)(C)[C@@H]5CC[C@]43C)[C@@H]12" , I see its AUC(0-t) at 6 h listed as 0.288 µM·h
